OD 450/OD450Control antibody 1 listing for selected binders.
- System tested: T1, human soluble IL-4Rα (sIL-4Rα) (human, UniProt P24394 26-232)
- T1 construct: Bought reagent (PEPRO TECH, Catalog Number 200-04R); also called shIL-4Rα; soluble hIL-4 Rα
- T1 sequence: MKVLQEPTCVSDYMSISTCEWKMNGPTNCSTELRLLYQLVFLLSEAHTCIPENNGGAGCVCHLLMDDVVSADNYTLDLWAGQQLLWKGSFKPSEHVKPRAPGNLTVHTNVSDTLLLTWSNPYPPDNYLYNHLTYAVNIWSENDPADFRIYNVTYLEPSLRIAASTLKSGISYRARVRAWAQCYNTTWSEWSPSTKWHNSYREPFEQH
- Assay: ELISA, coated sIL-4Rα, culture supernatant
Keep it simple and answer with nothing but the number.

The examples below pair each entry with its known result.
| Binder | Numeric value |
| --- | --- |
| L1021H1031 (antibody, V domains shown, human kappa) VH: EVQLVESGGGLVQPGGSLRLSCAASGFTFSRNAMFWVRQAPGKGLEWVSGIGTGGATSYADSVKGRFTISRDNAKNSLYLQMNSLRAEDTAVYYCARGRYYFDYWGQGTLVTVSS VL: EIVLTQSPGTLSLSPGERATLSCRASQSVSSSYLAWYQQKPGQAPRLLIFGASSRAPGIPDRFSGSGSGTDFTLTISRLEPEDFAVYYCQQYDHSAGWTFGQGTKVEIK | 0.9 |
| L1020H1007 (antibody, V domains shown, human kappa) VH: EVQLVQSGGGLVHPGGSLRLSCAGSGFTFSRNAMFWVRQAPGKGLEWVSGIGTGGATSYADSVKGRFTISRDNAKNSLYLQMNSLRAEDMAVYYCARGRYYFDYWGQGTLVTVSS VL: EIVLTQSPGTLSLSPGERATLSCRASQSVSSSYLAWYQQKPGQAPRLLIYGASSRATGIPDRFSGSGSGTDFTLTISRLEPEDFAVYYCQQYDHSAGWTFGQGTKVEIK | 0.4 |

Here is the next item to consider.
Prompt line: Bench note: what OD 450/OD450Control antibody 1 did L1020H1031 (antibody, V domains shown, human kappa) VH: EVQLVESGGGLVQPGGSLRLSCAASGFTFSRNAMFWVRQAPGKGLEWVSGIGTGGATSYADSVKGRFTISRDNAKNSLYLQMNSLRAEDTAVYYCARGRYYFDYWGQGTLVTVSS VL: EIVLTQSPGTLSLSPGERATLSCRASQSVSSSYLAWYQQKPGQAPRLLIYGASSRATGIPDRFSGSGSGTDFTLTISRLEPEDFAVYYCQQYDHSAGWTFGQGTKVEIK show?
Response line: 1.12
